Recorded measurements of Bliss excess, one per entry
# System: HSC-2 (Oral Cavity Carcinoma);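 further: after 72 h of two-drug dosing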
# protocolText: Bliss excess, mean over the matrix (fraction); higher = more synergy
quantityKind: Bliss excess

[[record]]
compound = "CC1(C)CCC(CN2CCN(c3ccc(C(=O)NS(=O)(=O)c4ccc(NCC5CCOCC5)c([N+](=O)[O-])c4)c(Oc4cnc5[nH]ccc5c4)c3)CC2)=C(c2ccc(Cl)cc2)C1 [Venetoclax] + C[C@@H](Nc1cc(F)cc(F)c1)c1cc(C(=O)N(C)C)cc2c(=O)cc(N3CCOCC3)oc12 [AZD8186] (first compound max 1 µM, 7x7, partner max 3 µM)"
targetdesc = "HSC-2 (Oral Cavity Carcinoma)"
result = -0.0482

[[record]]
compound = "CN(CCO)CC[C@H](CSc1ccccc1)Nc1ccc(S(=O)(=O)NC(=O)c2ccc(N3CCC([C@@H](O)c4ccccc4-c4ccc(Cl)cc4)CC3)cc2)cc1S(=O)(=O)C(F)(F)F [AZD4320] + CS(=O)(=O)CCNCc1ccc(-c2ccc3ncnc(Nc4ccc(OCc5cccc(F)c5)c(Cl)c4)c3c2)o1 [Lapatinib] (first compound max 1 µM, 7x7, partner max 10 µM)"
targetdesc = "HSC-2 (Oral Cavity Carcinoma)"
result = 0.114

